Cmax overview
ASSAY DETAILS: Pharmacokinetic assay in Balb/c mice (plasma and brain tissue)
Assay type: in vivo
EXPERIMENTAL SETUP: male, mouse, po, Plasma, p.o. 5 mg/kg, read-out: Plasma concentration Cmax
QUANTITY KIND: Cmax (ng/mL)

O=C(N[C@H]1C[C@@H](CCN2CCN(c3cccc(Cl)c3Cl)CC2)C1)C1(O)CC1 :: 961
O=C(N[C@H]1C[C@H](CCN2CCN(c3cccc(Cl)c3Cl)CC2)C1)c1ncco1 [Example 12A] :: 673
CCN(C)C(=O)NC1CC(CCN2CCN(c3cccc4sccc34)CC2)C1 (centres unmarked) :: 369
O=C(NC1CC(CCN2CCN(c3cccc(Cl)c3Cl)CC2)C1)C1(O)CC1 (centres unmarked) :: 865
O=C(NC1CC(CCN2CCN(c3cccc(Cl)c3Cl)CC2)C1)c1ncco1 (centres unmarked) :: 391
O=C(N[C@H]1C[C@@H](CCN2CCN(c3cccc(Cl)c3Cl)CC2)C1)c1ncco1 [Example 12B] :: 715
O=C(N[C@H]1C[C@H](CCN2CCN(c3cccc(Cl)c3Cl)CC2)C1)c1cccc2ncccc12 [Example 19A] :: 349
O=C(N[C@H]1C[C@H](CCN2CCN(c3cccc(Cl)c3Cl)CC2)C1)c1nccs1 :: 102
O=C(NC1CC(CCN2CCN(c3cccc(Cl)c3Cl)CC2)C1)c1nccs1 (centres unmarked) :: 254
O=C(NC1CC(CCN2CCCN(c3cccc(Cl)c3Cl)CC2)C1)c1ccco1 (centres unmarked) :: 49.7
O=C(N[C@H]1C[C@H](CCN2CCN(c3cccc(Cl)c3Cl)CC2)C1)C1(O)CC1 :: 745
